assay.details: G protein-coupled receptor (GPCR) small molecule agonists, calcium flux assay: HEK293 wild type cell line counter screen (AID 1920065); note: % is set by controls: 0 for no effect and ±100 for the full control effect
condition.set: HEK293 WT calcium flux, fluorescence, agonist mode; series mostly up to 57.6 µM
Active and inactive are the calls of the source. Calls come from the whole dose curve.
recorded.endpoint: activation

[[record]]
compound = "CC/C=C\\CC/C=C/C(OCC)OCC"
observed_result = "inactive"

[[record]]
compound = "CCCCCCCC/C=C\\CCCCCCCC(=O)OC"
observed_result = "inactive"

[[record]]
compound = "CCCCCCCCCCCCCCCCCCN(C)C"
observed_result = "inactive"

[[record]]
compound = "CCCCCN(CCCOC)C(=O)C(CCC(=O)O)NC(=O)c1ccc(Cl)c(Cl)c1 (stereo unspecified)"
observed_result = "inactive"

[[record]]
compound = "CCOc1nc2cccc(C(=O)O)c2n1Cc1ccc(-c2ccccc2-c2nn[nH]n2)cc1"
observed_result = "inactive"

[[record]]
compound = "COc1ccc(-n2nc(CCC(=O)N(C)O)cc2-c2ccc(Cl)cc2)cc1"
observed_result = "inactive"

[[record]]
compound = "O=C1c2ccccc2C(=O)c2cc(O)ccc21"
observed_result = "inactive"

[[record]]
compound = "O=C1CCCC(=O)C1"
observed_result = "inactive"

[[record]]
compound = "Nc1ccc(Oc2cccc(Oc3ccc(N)cc3)c2)cc1"
observed_result = "inactive"

[[record]]
compound = "COc1cc2nc(N3CCN(C(=O)C4CCCO4)CC3)nc(N)c2cc1OC (stereo unspecified)"
observed_result = "inactive"

[[record]]
compound = "NC[C@H]1O[C@H](O[C@H]2[C@H](O[C@@H]3O[C@H](CO)[C@@H](O)[C@H]3O)C(O)[C@H](N)C[C@@H]2N)[C@H](N)[C@@H](O)[C@@H]1O (stereo partly specified)"
observed_result = "-0.0987% [at 5.23 µM] (inactive)"


====

assay.details: Nuclear factor erythroid 2-related factor 2/antioxidant responsive element (Nrf2/ARE) small molecule agonists: luciferase reporter gene qHTS assay in human keratinocytes (AID 1919969); note: nearly all actives have a fitted effect of over 35% in size
condition.set: KeratinoSens HaCaT ARE-luciferase, luminescence, 24 h; series mostly up to 92.4 µM
Source text: National Center for Advancing Translational Sciences [NCATS] Division of Preclinical Innovation [DPI] U.S. Environmental Protection Agency [EPA] National Institutes of Environmental Health Sciences [NIEHS] National Toxicology Program [NTP] […] Oxidative stress has been implicated in the pathogenesis of a variety of diseases ranging from cancer to neurodegeneration. […] The activation of the report gene under culture conditions can be detected by ONE-Glo Luciferase Assay System (Promega, Madison, WI). […]
Records with an inconclusive call do not appear. Calls of active or inactive are those of the source. Calls follow the shape of the full dose curve.
Labels: yes (1) = active, no (0) = inactive

[[record]]
compound = "Cc1cc(=O)oc2cc(O[C@@H]3SC[C@@H](O)[C@H](O)[C@H]3O)ccc12"
assigned_category = "no (0)"

[[record]]
compound = "NC(=O)C1(N2CCCCC2)CCN(CCCC(=O)c2ccc(F)cc2)CC1"
assigned_category = "no (0)"

[[record]]
compound = "CC/C=C\\CC/C=C/C(OCC)OCC"
assigned_category = "yes (1)"

[[record]]
compound = "C#CC(O)CCCCC (configuration not stated)"
assigned_category = "no (0)"

[[record]]
compound = "O=[N+]([O-])c1ccc(/C=N\\O)o1"
assigned_category = "yes (1)"

[[record]]
compound = "O=c1cc[nH]cc1"
assigned_category = "no (0)"

[[record]]
compound = "Oc1ccc(C2CNCCc3c2cc(O)c(O)c3Cl)cc1 (configuration not stated)"
assigned_category = "no (0)"


====

assay.details: Nuclear factor erythroid 2-related factor 2/antioxidant responsive element (Nrf2/ARE) small molecule agonists: luciferase reporter gene qHTS assay in human keratinocytes (AID 1919969); note: nearly all actives have a fitted effect of over 35% in size
condition.set: KeratinoSens HaCaT ARE-luciferase, luminescence, 24 h; series mostly up to 92.4 µM
Inconclusive results are not listed. The source made the active and inactive calls. Calls come from the whole dose curve.
Classes used: true = active, false = inactive

[[record]]
compound = "O=P(O)(O)OCC(O)CO (stereo not drawn)"
assigned_category = "false"

[[record]]
compound = "CS(=O)(=O)c1ccc(-c2cn3ccccc3n2)cc1"
assigned_category = "true"

[[record]]
compound = "CCCCCCCC[P+](CCCCCCCC)(CCCCCCCC)CCCCCCCC"
assigned_category = "false"

[[record]]
compound = "CC(=O)Nc1ccc(C)c(Cl)c1"
assigned_category = "false"

[[record]]
compound = "CC(C)=NNC(N)=S"
assigned_category = "true"

[[record]]
compound = "CC1=C(C(=O)OC(C)C)C(c2cccc([N+](=O)[O-])c2)C(C(=O)OC2CN(C(c3ccccc3)c3ccccc3)C2)=C(N)N1 (stereo not drawn)"
assigned_category = "false"

[[record]]
compound = "CCCCCc1ccc(Cl)cc1"
assigned_category = "false"

[[record]]
compound = "O=C(O)c1c(O)c(-c2ccccc2)nc2ccccc12"
assigned_category = "false"

[[record]]
compound = "C1=CCC(c2ccccc2)CC1 (stereo not drawn)"
assigned_category = "false"

[[record]]
compound = "CN1CN(C)CN(C)C1"
assigned_category = "false"

[[record]]
compound = "NS(=O)(=O)c1cc2c(cc1Cl)CN(C1CCCCC1)C2=O"
assigned_category = "false"

[[record]]
compound = "C=CC(C)(CCC=C(C)C)OC(=O)c1ccccc1 (stereo not drawn)"
assigned_category = "true"

[[record]]
compound = "CN(C)Cc1ccccc1"
assigned_category = "false"


====

assay.details: Nuclear factor erythroid 2-related factor 2/antioxidant responsive element (Nrf2/ARE) small molecule agonists: luciferase reporter gene qHTS assay in human keratinocytes (AID 1919969); note: nearly all actives have a fitted effect of over 35% in size
condition.set: KeratinoSens HaCaT ARE-luciferase, luminescence, 24 h; series mostly up to 92.4 µM
Inconclusive results are not listed. The source made the active and inactive calls. The call rests on the fitted dose curve.
Labels: Y for active, N for inactive

[[record]]
compound = "OCCCc1cccnc1"
assigned_category = "N"

[[record]]
compound = "CC(=O)OC(C)(C)C"
assigned_category = "N"

[[record]]
compound = "c1ccc(CNCCNCc2ccccc2)cc1"
assigned_category = "N"

[[record]]
compound = "Cc1cc(C(C)(C)C)c(O)c(C)c1CC1=NCCN1"
assigned_category = "N"

[[record]]
compound = "CC(=O)NCCCCCC(=O)O"
assigned_category = "N"

[[record]]
compound = "Nc1ccc(C(=O)O)c(O)c1"
assigned_category = "N"

[[record]]
compound = "CC(=O)Nc1ccc(S(=O)(=O)Nc2cc(C)on2)cc1"
assigned_category = "N"

[[record]]
compound = "CC(=O)SC[C@@H](Cc1ccccc1)C(=O)NCC(=O)OCc1ccccc1"
assigned_category = "N"

[[record]]
compound = "COc1cc2[nH]c(=O)[nH]c(=O)c2cc1OC"
assigned_category = "N"

[[record]]
compound = "CCCCCc1ccc(N)cc1"
assigned_category = "N"

[[record]]
compound = "Cn1c(=O)[nH]c2ncn(C)c2c1=O"
assigned_category = "N"

[[record]]
compound = "CC1(C)C(=O)N(CO)C(=O)N1CO"
assigned_category = "N"

[[record]]
compound = "O=C(/C=C/c1ccccc1)OC/C=C/c1ccccc1"
assigned_category = "N"

[[record]]
compound = "CC(C)(C)NC[C@H](O)COc1cccc2c1CCCC2=O"
assigned_category = "N"

[[record]]
compound = "O=C(O)c1cccc(-c2noc(-c3ccccc3F)n2)c1"
assigned_category = "N"

[[record]]
compound = "CCCCCCCCCC(=O)N(C)C"
assigned_category = "Y"

[[record]]
compound = "CN1CCN(c2c(F)cc3c(=O)c(C(=O)O)cn4c3c2SCC4)CC1"
assigned_category = "N"

[[record]]
compound = "CC(C)(C)C1CCC(=O)CC1"
assigned_category = "Y"

[[record]]
compound = "CCC(CC)C(=O)O"
assigned_category = "N"

[[record]]
compound = "CCCCCCOC(=O)CCC"
assigned_category = "N"

[[record]]
compound = "O=C(Cn1ccnc1[N+](=O)[O-])NCCO"
assigned_category = "N"

[[record]]
compound = "Cc1cc(F)ccc1-c1cc(N2CC[C@@H](O)[C@H]2CO)ncc1N(C)C(=O)C(C)(C)c1cc(C(F)(F)F)cc(C(F)(F)F)c1"
assigned_category = "N"

[[record]]
compound = "CCCCCCCCCCCCCCCCCCO"
assigned_category = "N"

[[record]]
compound = "CC(C)C1OCCN1CCOC(=O)NCCCCCCNC(=O)OCCN1CCOC1C(C)C (stereo not drawn)"
assigned_category = "N"

[[record]]
compound = "CCCCCN(CCCOC)C(=O)C(CCC(=O)O)NC(=O)c1ccc(Cl)c(Cl)c1 (stereo not drawn)"
assigned_category = "N"

[[record]]
compound = "CCCS(=O)c1ccc2nc(NC(=O)OC)[nH]c2c1 (stereo not drawn)"
assigned_category = "N"

[[record]]
compound = "O=S(=O)(c1ccccc1)c1ccc(Cl)cc1"
assigned_category = "N"

[[record]]
compound = "CC[C@@H](N)CO"
assigned_category = "N"

